- Assay protocol: blocking HSF1-driven luciferase expression – cell-based, NIH3T3, luminescence, primary screen (AID 2098);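 note: luciferase reports HSF-1 transcriptional activity via heat shock element; 0% = median of DMSO wells and -100% = zero luminescence signal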
- Cond: NIH3T3-HGL HSE-luciferase, MG132-induced, luminescence 8 h; stronger effect = lower value; screened at 7.5 µM (by protocol)
Among all 300,000 compounds or so, about 2,300 (0.77%) were called active. Many of the other results were omitted from the sample, so actives are more common in it than they were.
Recorded endpoint: activity change, negative = inhibition (%)
Express your answer in %, writing the number without its unit.

Here is how some molecules turned out for activity change, negative = inhibition.
Molecule | activity change, negative = inhibition (%)
Cc1ccc(S(=O)(=O)N(NC2=NS(=O)(=O)c3ccccc32)C(=O)c2ccccc2)cc1 | -2.65
CC1(c2nnc(Cc3ccccc3)o2)CC(c2ccccc2F)=NO1 (configuration not stated) | -1.4
COc1ccc(Nc2ncnc3sc(-c4ccccc4)cc23)c(OC)c1 | -2.06
O=C(O)c1ccc2c(c1)C(=O)N(NC(=O)c1ccc(O)cc1)C2=O | 0.898
COCCCNC(=S)N1CCCC(c2nc3cc(C)c(C)cc3[nH]2)C1 (configuration not stated) | 5.14
OCCCNc1nc(-c2ccccc2)c2cc(Cl)ccc2n1 | -1.41
CCN1C(=O)[C@H]2[C@@H](c3ccc(SC4CCCCC4)c(OC)c3)N[C@@](Cc3ccccc3)(C(=O)OC)[C@H]2C1=O | 6.65
O=C(Nc1c(Br)cc2c(c1Br)Cc1ccccc1-2)C(F)(F)F | -5.38

Fill in: activity change, negative = inhibition of COc1cc(C(=O)NN(CCC#N)C2=NS(=O)(=O)c3ccccc32)cc(OC)c1OC is ___
-1.4

Fill in: activity change, negative = inhibition of CN(C)CCCNC(=S)N1CCC(c2nc3ccccc3[nH]2)CC1 is ___
-2.77

Fill in: activity change, negative = inhibition of Cc1cc(C(=O)CCC(=O)NNC(=O)c2ccccc2O)c(C)s1 is ___
1.38

Provenance of the data: PubChem BioAssay AID2098
